B1: ELF3 (parent)
chain: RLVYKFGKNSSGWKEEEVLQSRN

Variants of: B1
Assay: protein stability index of a GFP-peptide fusion (GPS, HEK-293T) (PSI 1-6); higher = more stable;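 also: lentivirally expressed fusions sorted by FACS into six bins by GFP to DsRed ratio, PSI derived from sequencing read proportions per bin multiplied by bin number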
Details: c terminus: native
measured parameter: protein stability index
Simply state the number, no unit and no words.

Given item `N9H` , the value recorded as its protein stability index is 1.68

Entry `K14D` — recorded protein stability index = 3.25

For record `V18Q` the listed protein stability index is 2.35

For the next question, use this variant.
# protein stability index of `Q20H` = 1.76
